assayed target: the molecule itself
protocol text: dynamic light scattering; 10 µM AGT as purified, 25 °C, 20 mM HEPES (sodium salt), 200 mM NaCl, pH 7.4; hydrodynamic radius assuming spherical particles (Stokes-Einstein)
parameter measured: stoichiometry N

protein="AGT LM p.S81D (enzyme, human, UniProt P21549 1-392, looked up, Alanine:glyoxylate aminotransferase (AGT), human, minor allele (LM) background with the phosphomimetic S81D; site-directed mutant of the pCOLDII construct of m2; also called set D81) MASHKLLVTPLKALLKPLSIPNQLLLGPGPSNLPPRIMAAGGLQMIGSMSKDMYQIMDEIKEGIQYVFQTRNPLTLVISGDGHCALEAALVNVLEPGDSFLVGANGIWGQRAVDIGERIGARVHPMTKDPGGHYTLQEVEEGLAQHKPVLLFLTHGESSTGVLQPLDGFGELCHRYKCLLLVDSVASLGGTPLYMDRQGIDILYSGSQKALNAPPGTSLISFSDKAKKKMYSRKTKPFSFYLDIKWLANFWGCDDQPRMYHHTIPVISLYSLRESLALIAEQGLENSWRQHREAAAYLHGRLQALGLQLFVKDPALRLPTVTTVAVPAGYDWRDIVSYVMDHFDIEIMGGLGPSTGKVLRIGLLGCNATRENVDRVTEALRAALQHCPKKKL" parameter_measured="stoichiometry N" quantitative_readout=2
protein="AGT LM-p.I244T p.S81D (enzyme, human, UniProt P21549 1-392, looked up, Alanine:glyoxylate aminotransferase (AGT), human, LM-p.I244T background with the phosphomimetic S81D; site-directed mutant of the pCOLDII construct of m4; also called set D81) MASHKLLVTPLKALLKPLSIPNQLLLGPGPSNLPPRIMAAGGLQMIGSMSKDMYQIMDEIKEGIQYVFQTRNPLTLVISGDGHCALEAALVNVLEPGDSFLVGANGIWGQRAVDIGERIGARVHPMTKDPGGHYTLQEVEEGLAQHKPVLLFLTHGESSTGVLQPLDGFGELCHRYKCLLLVDSVASLGGTPLYMDRQGIDILYSGSQKALNAPPGTSLISFSDKAKKKMYSRKTKPFSFYLDTKWLANFWGCDDQPRMYHHTIPVISLYSLRESLALIAEQGLENSWRQHREAAAYLHGRLQALGLQLFVKDPALRLPTVTTVAVPAGYDWRDIVSYVMDHFDIEIMGGLGPSTGKVLRIGLLGCNATRENVDRVTEALRAALQHCPKKKL" parameter_measured="stoichiometry N" quantitative_readout=2
protein="AGT LM (minor allele, p.P11L and p.I340M) (enzyme, human, UniProt P21549 1-392, looked up, Alanine:glyoxylate aminotransferase (AGT), human, common polymorphic minor allele (LM); also called set S81) MASHKLLVTPLKALLKPLSIPNQLLLGPGPSNLPPRIMAAGGLQMIGSMSKDMYQIMDEIKEGIQYVFQTRNPLTLVISGSGHCALEAALVNVLEPGDSFLVGANGIWGQRAVDIGERIGARVHPMTKDPGGHYTLQEVEEGLAQHKPVLLFLTHGESSTGVLQPLDGFGELCHRYKCLLLVDSVASLGGTPLYMDRQGIDILYSGSQKALNAPPGTSLISFSDKAKKKMYSRKTKPFSFYLDIKWLANFWGCDDQPRMYHHTIPVISLYSLRESLALIAEQGLENSWRQHREAAAYLHGRLQALGLQLFVKDPALRLPTVTTVAVPAGYDWRDIVSYVMDHFDIEIMGGLGPSTGKVLRIGLLGCNATRENVDRVTEALRAALQHCPKKKL" parameter_measured="stoichiometry N" quantitative_readout=2
protein="AGT LM-p.G170R p.S81D (enzyme, human, UniProt P21549 1-392, looked up, Alanine:glyoxylate aminotransferase (AGT), human, LM-p.G170R background with the phosphomimetic S81D; site-directed mutant of the pCOLDII construct of m3; also called set D81) MASHKLLVTPLKALLKPLSIPNQLLLGPGPSNLPPRIMAAGGLQMIGSMSKDMYQIMDEIKEGIQYVFQTRNPLTLVISGDGHCALEAALVNVLEPGDSFLVGANGIWGQRAVDIGERIGARVHPMTKDPGGHYTLQEVEEGLAQHKPVLLFLTHGESSTGVLQPLDGFRELCHRYKCLLLVDSVASLGGTPLYMDRQGIDILYSGSQKALNAPPGTSLISFSDKAKKKMYSRKTKPFSFYLDIKWLANFWGCDDQPRMYHHTIPVISLYSLRESLALIAEQGLENSWRQHREAAAYLHGRLQALGLQLFVKDPALRLPTVTTVAVPAGYDWRDIVSYVMDHFDIEIMGGLGPSTGKVLRIGLLGCNATRENVDRVTEALRAALQHCPKKKL" parameter_measured="stoichiometry N" quantitative_readout=2
protein="AGT LM-p.G170R p.S81A (enzyme, human, UniProt P21549 1-392, looked up, Alanine:glyoxylate aminotransferase (AGT), human, LM-p.G170R background with S81A; site-directed mutant of the pCOLDII construct of m3; also called set A81) MASHKLLVTPLKALLKPLSIPNQLLLGPGPSNLPPRIMAAGGLQMIGSMSKDMYQIMDEIKEGIQYVFQTRNPLTLVISGAGHCALEAALVNVLEPGDSFLVGANGIWGQRAVDIGERIGARVHPMTKDPGGHYTLQEVEEGLAQHKPVLLFLTHGESSTGVLQPLDGFRELCHRYKCLLLVDSVASLGGTPLYMDRQGIDILYSGSQKALNAPPGTSLISFSDKAKKKMYSRKTKPFSFYLDIKWLANFWGCDDQPRMYHHTIPVISLYSLRESLALIAEQGLENSWRQHREAAAYLHGRLQALGLQLFVKDPALRLPTVTTVAVPAGYDWRDIVSYVMDHFDIEIMGGLGPSTGKVLRIGLLGCNATRENVDRVTEALRAALQHCPKKKL" parameter_measured="stoichiometry N" quantitative_readout=2
protein="Alanine:glyoxylate aminotransferase (AGT) WT (enzyme, human, UniProt P21549 1-392, looked up, also called wild-type; major allele) MASHKLLVTPPKALLKPLSIPNQLLLGPGPSNLPPRIMAAGGLQMIGSMSKDMYQIMDEIKEGIQYVFQTRNPLTLVISGSGHCALEAALVNVLEPGDSFLVGANGIWGQRAVDIGERIGARVHPMTKDPGGHYTLQEVEEGLAQHKPVLLFLTHGESSTGVLQPLDGFGELCHRYKCLLLVDSVASLGGTPLYMDRQGIDILYSGSQKALNAPPGTSLISFSDKAKKKMYSRKTKPFSFYLDIKWLANFWGCDDQPRMYHHTIPVISLYSLRESLALIAEQGLENSWRQHREAAAYLHGRLQALGLQLFVKDPALRLPTVTTVAVPAGYDWRDIVSYVIDHFDIEIMGGLGPSTGKVLRIGLLGCNATRENVDRVTEALRAALQHCPKKKL" parameter_measured="stoichiometry N" quantitative_readout=2
protein="AGT LM-p.G170R (enzyme, human, UniProt P21549 1-392, looked up, Alanine:glyoxylate aminotransferase (AGT), human, minor allele (LM) with the PH1-associated variant p.G170R; also called set S81) MASHKLLVTPLKALLKPLSIPNQLLLGPGPSNLPPRIMAAGGLQMIGSMSKDMYQIMDEIKEGIQYVFQTRNPLTLVISGSGHCALEAALVNVLEPGDSFLVGANGIWGQRAVDIGERIGARVHPMTKDPGGHYTLQEVEEGLAQHKPVLLFLTHGESSTGVLQPLDGFRELCHRYKCLLLVDSVASLGGTPLYMDRQGIDILYSGSQKALNAPPGTSLISFSDKAKKKMYSRKTKPFSFYLDIKWLANFWGCDDQPRMYHHTIPVISLYSLRESLALIAEQGLENSWRQHREAAAYLHGRLQALGLQLFVKDPALRLPTVTTVAVPAGYDWRDIVSYVMDHFDIEIMGGLGPSTGKVLRIGLLGCNATRENVDRVTEALRAALQHCPKKKL" parameter_measured="stoichiometry N" quantitative_readout=2

Values from paper PMC13079258
